Target: SpNbp2
Assay: SPOT peptide array binding signal intensity (averaged, normalized) (arbitrary units (background-subtracted, floor 0; scale differs between SH3 domains)); higher = stronger binding of the SH3 domain to the peptide
Decision: SPOT peptide array binding signal intensity >= 30 yields Satisfied, all other cases yield Not satisfied.

// below: answered binders
# Binder, Category Label
measured = [
    ("SKSRLLIELPEGFFT", "Not satisfied"),
    ("SRSKPLPLTPNSKYN", "Not satisfied"),
    ("VRTRRRPPPPPIPST", "Not satisfied"),
    ("RRGPAPPPPPRASRP", "Not satisfied"),
    ("TYNRTAFQIPGDQSI", "Not satisfied"),
]

Attention now turns to another entry.
Incoming: Say whether NVLRKILEIPLHSFS shows SPOT peptide array binding signal intensity of 30 or more.
Outgoing: Satisfied
